Recorded pKi for molecules tested on Bcl-2-like protein 1 (Homo sapiens, UniProt Q07817), drawn from a number of studies.
Sequence (Q07817 whole entry): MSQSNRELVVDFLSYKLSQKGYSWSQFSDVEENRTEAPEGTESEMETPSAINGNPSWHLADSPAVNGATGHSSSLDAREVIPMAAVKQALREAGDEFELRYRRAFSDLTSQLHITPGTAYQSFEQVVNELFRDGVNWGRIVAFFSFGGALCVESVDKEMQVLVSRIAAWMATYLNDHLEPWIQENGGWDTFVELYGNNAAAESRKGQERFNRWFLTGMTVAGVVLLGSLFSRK
pKi: −log10 of the molar value.
propertyMeasured: pKi

P. O=C(Nc1nc2ccccc2s1)c1cccc2c1CN(c1ccc(-c3cnn(Cc4ccccc4)c3)c(C(=O)O)n1)CC2
Q. COC(=O)[C@H](C)NC(=O)c1ccc(C(=O)N(C(C)C)C(C)C)cc1OC(C)C
R. CN(C)CC[C@H](CSc1ccccc1)Nc1ccc(S(=O)(=O)NC(=O)c2ccc(N3CCC4(CC3)CC(c3ccccc3)=NO4)cc2)cc1[N+](=O)[O-]
Sort the listed molecules above so the one with the largest pKi comes first and the smallest comes last. Answer by naming the labels in the order asked. P, R, Q

---

# literature pull: Bcl-2-like protein 1 (Homo sapiens) Ki

Examples with their reported Ki follow.
CN(C)CC[C@H](CSc1ccccc1)Nc1ccc(S(=O)(=O)Nc2ccc(N3CCN(c4cccc(-c5c(-c6ccc(Cl)cc6)cn(C)c5C(=O)O)c4)CC3)cc2)cc1[N+](=O)[O-]    < 0.001 µM
O=C(O)c1ccc(COc2ccc(/C=C3\SC(=S)N(c4ccc(Br)cc4)C3=O)cc2)cc1    > 10 µM
CNC(=O)c1c(-c2cccc(N3CCN(c4ccc(NS(=O)(=O)c5ccc(N[C@H](CCN(C)C)CSc6ccccc6)c([N+](=O)[O-])c5)cc4)CC3)c2)c(-c2ccc(Cl)cc2)cn1C    < 0.001 µM
O=C(/C=C/c1ccccc1C(F)(F)F)Nc1ccc(C(=O)NS(=O)(=O)c2ccc(NCCSc3ccccc3)c([N+](=O)[O-])c2)cc1    0.17 µM
COC1(Cc2ccccc2Br)CCN(c2ccc(C(=O)NS(=O)(=O)c3ccc(N[C@H](CCN(C)C)CSc4ccccc4)c([N+](=O)[O-])c3)cc2)CC1    < 0.0005 µM

Moving on to another compound below.
Record summary for Cc1cc(OCCCc2c3n(c4c(-c5c(C)nn(C)c5C)c(Cl)ccc24)CCCN(c2cc(C(=O)O)cc4c2OCO4)C3=O)cc(C)c1Cl : reported Ki = > 36 µM

---

Here is a set of compounds with reported pKi for Bcl-2-like protein 1 (Homo sapiens, UniProt Q07817), compiled from the literature.
pKi: −log10 of the molar value.
propertyMeasured: pKi

Solved cases (4 shown):
CC(=O)N[C@@H](Cc1ccccc1)C(=O)Nc1ccc(C(=O)NS(=O)(=O)c2ccc(NCCSc3ccccc3)c([N+](=O)[O-])c2)cc1    5.47
CN(C)CC[C@H](CSc1ccccc1)Nc1ccc(S(=O)(=O)NC(=O)c2ccc(N3CCN(Cc4ccccc4S(C)(=O)=O)CC3)cc2)cc1[N+](=O)[O-]    9.05
CN(C)CC[C@H](CSc1ccccc1)Nc1ccc(S(=O)(=O)Nc2ccc(N3CCN(c4cccc(-c5cn(C)cc5-c5ccc(Cl)cc5)c4)CC3)cc2)cc1[N+](=O)[O-]    8.08
CCCCNC1=C(C#N)C(=O)c2cccc3c(Sc4ccc(Br)cc4)ccc1c23    6.26

P. O=C(/C=C/c1ccc(C(F)(F)F)cc1)Nc1ccc(C(=O)NS(=O)(=O)c2ccc(NCCSc3ccccc3)c([N+](=O)[O-])c2)cc1
Q. CC[C@H](C)[C@H](NC(C)=O)C(=O)Nc1ccc(C(=O)NS(=O)(=O)c2ccc(NCCSc3ccccc3)c([N+](=O)[O-])c2)cc1
R. Cc1ccc(-c2ccc(O[C@H]3C[C@@H](C(=O)N[C@@H](Cc4ccccc4)C(=O)NS(=O)(=O)c4ccc(Cl)c([N+](=O)[O-])c4)N(C(=O)OC(C)(C)C)C3)cc2)cc1
S. Cc1ccccc1CN1CCN(c2ccc(C(=O)NS(=O)(=O)c3ccc(N[C@H](CCN(C)C)CSc4ccccc4)c([N+](=O)[O-])c3)cc2)CC1
# rank_down: sort by pKi, max first Dear reader, please state the labels in the requested order. S, P, Q, R
(S: 8.52, P: 6.29, Q: 5.32, R: 5.06)

---

Across several publications, the following Ki results were reported for Bcl-2-like protein 1 (Homo sapiens).
propertyMeasured: Ki (nM)

Cc1cccc(C)c1N1C(=O)/C(=C/c2ccc(OCc3ccc(C(=O)O)cc3)cc2)SC1=S    3900
O=C(Nc1nc2ccccc2s1)c1cccc2c1CN(c1ccc(CCCOc3ccccc3)c(C(=O)O)n1)CC2    11
O=C(/C=C/c1cccc(Cl)c1)Nc1ccc(C(=O)NS(=O)(=O)c2ccc(NCCSc3ccccc3)c([N+](=O)[O-])c2)cc1    290

a. Cc1cc(OCCCc2c(C(=O)NS(=O)(=O)c3cccc(CNC(=O)c4ccoc4)c3)[nH]c3c(-c4c(C)nn(C)c4C)c(Cl)ccc23)cc(C)c1Cl
b. CC(C)C(C(=O)O)N1C(=O)/C(=C/c2ccc(Br)cc2)SC1=S (configuration not stated)
Which item exceeds the other in Ki, a or b ? Give the chosen item's label as your response. b

---

The entries that follow carry Ki values tested on Bcl-2-like protein 1 (Homo sapiens, UniProt Q07817), drawn from several published reports.

Examples with their reported Ki follow.
Cc1cc(OCCCc2c3n(c4c(-c5c(C)nn(C)c5C)c(Cl)ccc24)[C@H](C)CN(c2cn(C)c4cc(C(=O)O)ccc24)C3=O)cc(C)c1Cl    > 40 µM
Cc1cc(OCCCc2c3n(c4c(-c5c(C)nn(C)c5C)c(Cl)ccc24)[C@H](C)CN(c2cc(C(=O)O)c4ccn(C)c4c2)C3=O)cc(C)c1Cl    > 40 µM
COc1ccc(C(=O)Nc2ccc(C(=O)NS(=O)(=O)c3ccc(NCCSc4ccccc4)c([N+](=O)[O-])c3)cc2)cc1    1.27 µM
C=C(c1ccc(C(=O)NS(=O)(=O)c2ccc(NCCSc3ccccc3)c([N+](=O)[O-])c2)cc1)c1cc2c(cc1C)C(C)(C)CCC2(C)C    > 20 µM
Cc1cc(Oc2ccc(Cn3nc4ccc(Cl)cc4c3C(=O)NS(=O)(=O)c3ccc(NCCc4ccncc4)c([N+](=O)[O-])c3)cc2)cc(C)c1Cl    > 10 µM
C[C@@H](Nc1ncnc2sc(-c3ccccc3)c(-c3cccc(O)c3)c12)C(=O)O    42 µM

# Ki (molecule: Cc1c(-c2ccc(N3CCc4cccc(C(=O)Nc5nc6ccccc6s5)c4C3)nc2C(=O)O)cnn1Cc1ccccc1 ) is 2.7e-05 µM

Kindly note the recorded Ki for Cc1cc(OCC(=O)O)ccc1Cl , which is > 1000 µM

Briefly, Ki measured for Cc1cc(OCCCc2c(C(=O)NS(=O)(=O)c3cccc(CNC(=O)c4cccn4C)c3)[nH]c3c(-c4c(C)nn(C)c4C)c(Cl)ccc23)cc(C)c1Cl : > 50 µM

Field Ki (entry CC(C)C[C@H](NC(=O)c1ccc(C(=O)N(C(C)C)C(C)C)cc1Oc1cccc2ccccc12)C(=O)O ) reads 7.63 µM

Summary for this molecule, Cc1c(S(C)(=O)=O)c(-c2cc(F)cc(N3CCN(c4ccc(NS(=O)(=O)c5ccc(N[C@H](CCN6CCC(O)CC6)CSc6ccccc6)c(S(=O)(=O)C(F)(F)F)c5)cc4)CC3)c2)c(-c2ccc(Cl)cc2)n1C(C)C : Ki is < 0.001 µM

Form: molecule = COc1ccc(-c2ccccc2CN2CCN(c3ccc(C(=O)NS(=O)(=O)c4ccc(N[C@H](CCN(C)C)CSc5ccccc5)c([N+](=O)[O-])c4)cc3)CC2)cc1 ; Ki = < 0.0005 µM

Value of measured Ki for the entry Cc1cc(OCCCc2c(C(=O)NS(=O)(=O)c3ccnc(NCCc4ccccc4)c3)[nH]c3c(-c4c(C)nn(C)c4C)c(Cl)ccc23)cc(C)c1Cl : 1.11 µM

Reported Ki ( Cc1cc(Oc2ccc(Cn3nc4ccc(Cl)cc4c3C(=O)NS(=O)(=O)c3ccc(Cl)cc3)cc2)cc(C)c1Cl ) = > 10 µM

---

What follows is literature data on Ki for UniProt Q07817.

Consider the reported Ki for these molecules:
c1ccc2c(CSc3ncn[nH]3)cccc2c1    > 1000 µM
Cc1cc(Oc2ccc(Cn3nc4ccc(Cl)cc4c3C(=O)NS(=O)(=O)c3ccc([N+](=O)[O-])c(NCCc4ccco4)c3)cc2)cc(C)c1Cl    > 10 µM
CN(C)CC[C@H](CSc1ccccc1)Nc1ccc(S(=O)(=O)NC(=O)c2ccc(N3CCN(Cc4ccccc4-c4ccccc4Cl)CC3)cc2)cc1[N+](=O)[O-]    < 0.0005 µM
CN(C)CC[C@H](CSc1ccccc1)Nc1ccc(S(=O)(=O)NC(=O)c2ccc(N3CCC(=Cc4ccccc4Cl)CC3)cc2)cc1[N+](=O)[O-]    < 0.0005 µM

Record Cc1cc(OCCCc2c(C(=O)NS(=O)(=O)c3cccc(CNC(=O)C(C)C)c3)[nH]c3c(-c4c(C)nn(C)c4C)c(Cl)ccc23)cc(C)c1Cl . Reported Ki: > 50 µM

The molecule identified as Cc1cc(OCCCc2c3n(c4c(-c5c(C)nn(C)c5C)c(Cl)ccc24)CCCN(c2cc(C(=O)O)cc4ccn(C)c24)C3=O)cc(C)c1Cl registered its Ki at > 36 µM

Quick note, Ki for O=C([C@@H]1[C@@H](CO)[C@@H]2Cn3c(cccc3=O)[C@@H]2N1Cc1ccc(Cl)c(Cl)c1)N1CCC(Cc2ccccc2)CC1 landed at > 100 µM
